For each record, write down the corresponding Glutathione normalized mean intensity.
tested on: Reduced glutathione in salivary gland cell clusters (SGm); experiment: Glutathione assay in salivary gland tissue chip, 4 days post-radiation (15 Gy); also first screen of Selleck library at 100 μM; type: cell-based, mouse; settings: first screen of Selleck library at 100 μM, 15 Gy, 4 days post-radiation
Where a name gives a salt, the structure may show the parent alone.
// response body must contain only the number

Value of Glutathione normalized mean intensity reported for the molecule CC(C)[C@H](N)C(=O)OCCOCn1cnc2c(=O)[nH]c(N)nc21 [Valaciclovir HCl] is 0.6362

Form field Glutathione normalized mean intensity, entry CCc1cc(C(N)=S)ccn1 [Ethionamide] : 0.7451

# molecule Cc1cc(NS(=O)(=O)c2ccc(N)cc2)no1 [Sulfamethoxazole] ; its Glutathione normalized mean intensity = 0.8442

The molecule listed as CO[C@H]1/C=C/O[C@@]2(C)Oc3c(C)c(O)c4c(O)c(c5c(nc6cc(C)ccn65)c4c3C2=O)NC(=O)/C(C)=C\C=C\[C@H](C)[C@H](O)[C@@H](C)[C@@H](O)[C@@H](C)[C@H](OC(C)=O)[C@@H]1C [Rifaximin (Xifaxan)] shows Glutathione normalized mean intensity equal to 0.3977

Each recorded value in this set is attributed to patent US20260345555A1.
